- Target Entity: human MER (528-end) (Homo sapiens)
- Construct: human MER (528-end); purchased Camnabio, Japan
- Sequence (Q12866 528-999 limits assumed): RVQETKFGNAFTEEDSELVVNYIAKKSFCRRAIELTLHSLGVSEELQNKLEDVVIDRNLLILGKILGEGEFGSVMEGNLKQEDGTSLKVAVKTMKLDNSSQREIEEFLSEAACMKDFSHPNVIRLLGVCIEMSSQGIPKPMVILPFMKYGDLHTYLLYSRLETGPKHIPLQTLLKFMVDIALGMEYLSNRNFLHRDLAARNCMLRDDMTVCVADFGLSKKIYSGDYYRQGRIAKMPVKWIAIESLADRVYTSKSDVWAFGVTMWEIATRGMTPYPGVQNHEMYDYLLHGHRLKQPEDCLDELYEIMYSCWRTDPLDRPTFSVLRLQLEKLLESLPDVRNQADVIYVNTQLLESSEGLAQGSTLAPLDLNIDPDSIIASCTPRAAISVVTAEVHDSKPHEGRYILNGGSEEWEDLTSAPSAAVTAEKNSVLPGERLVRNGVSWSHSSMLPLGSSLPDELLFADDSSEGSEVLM
- Test Description: HTRF kinase activity biochemical assay, MER
- Run Parameters: 10 μM ATP, 30 minutes pre-incubation; read-out: HTRF MERTK IC50
pIC50: −log10 of the molar value.
Assay Readout: pIC50

Check out these entries, answers already filled in.
Compound | Target Entity | Value Reported
Cn1cc(-c2cnc(N)c(C(=O)N[C@H]3CCC[C@@H]3OCc3ccc(-c4ccc5c(ccn5C5CCN(CCO)CC5)c4)cc3)c2)cn1 [Example 7] | human MER (528-end) (Homo sapiens) | > 8.00
Nc1ncc(-c2ccc(F)nc2)cc1C(=O)N[C@H]1CCC[C@@H]1OCc1ccc(-c2ccc3c(c2)CCC3N2CCN(CCO)CC2)cc1 (stereo partly shown) [Example 19] | human MER (528-end) (Homo sapiens) | > 8.00
Nc1ncc(-c2cccnc2F)cc1C(=O)N[C@H]1CCC[C@@H]1OCc1ccc(-c2ccc3c(c2)OCCC3N2CCN(CCO)CC2)cc1 (stereo partly shown) [Example 134] | human MER (528-end) (Homo sapiens) | > 8.00
CN1C(=O)Cc2cc(-c3ccc(CO[C@H]4CCC[C@@H]4NC(=O)c4cc(-c5cnn(C)c5)cnc4N)cc3)ccc21 [Example 3] | human MER (528-end) (Homo sapiens) | 7.00 to 8.00
Nc1ncc(-c2ccc(F)nc2)cc1C(=O)N[C@H]1COC[C@@H]1OCc1ccc(-c2ccc3c(c2)CCC3N2CCN(CCO)CC2)cc1 (stereo partly shown) [Example 20] | human MER (528-end) (Homo sapiens) | > 8.00
Cn1cc(-c2cnc(N)c(C(=O)N[C@H]3CCC[C@@H]3OCc3ccc(-c4ccc5c(n4)C(C)(C)C(=O)N5C4CCN(CCO)CC4)cc3)c2)cn1 [Example 73] | human MER (528-end) (Homo sapiens) | 6.00 to 7.00

Ask: Let me know recorded pIC50 for CC1(C)CC(N2CCN(C(CO)CO)CC2)c2ccc(-c3ccc(CO[C@H]4CCC[C@@H]4NC(=O)c4cc(-c5cccnc5F)cnc4N)cc3)cc21 (stereo partly shown) [Example 140] , thanks.
Reply: > 8.00

Ask: Let me know recorded pIC50 for Cc1nc(-c2cnc(N)c(C(=O)N[C@H]3CCC[C@@H]3OCc3ccc(-c4ccc5c(c4)CC[C@@H]5N4CCN(CCO)CC4)cc3)c2)cs1 [Example 180] , thanks.
Reply: > 8.00

Ask: Let me know recorded pIC50 for CC1(C)C[C@@H](N2CCN(CCO)CC2)c2ccc(-c3ccc(CO[C@H]4CCC[C@@H]4NC(=O)c4cc(-c5cccnc5F)cnc4N)cc3)cc21 [Example 135] , thanks.
Reply: > 8.00

Ask: Let me know recorded pIC50 for N#Cc1ccc(-c2cnc(N)c(C(=O)N[C@H]3CCC[C@@H]3OCc3ccc(-c4ccc5c(c4)CC[C@@H]5N4CCN(CCO)CC4)cc3)c2)cn1 [Example 153] , thanks.
Reply: > 8.00

* * *

- Target Entity: human TYRO3 (455-end) (Homo sapiens, UniProt Q06418)
- Construct: TYRO3 (455-end); purchased SignalChem, Canada
- Sequence (Q06418 455-890 limits assumed): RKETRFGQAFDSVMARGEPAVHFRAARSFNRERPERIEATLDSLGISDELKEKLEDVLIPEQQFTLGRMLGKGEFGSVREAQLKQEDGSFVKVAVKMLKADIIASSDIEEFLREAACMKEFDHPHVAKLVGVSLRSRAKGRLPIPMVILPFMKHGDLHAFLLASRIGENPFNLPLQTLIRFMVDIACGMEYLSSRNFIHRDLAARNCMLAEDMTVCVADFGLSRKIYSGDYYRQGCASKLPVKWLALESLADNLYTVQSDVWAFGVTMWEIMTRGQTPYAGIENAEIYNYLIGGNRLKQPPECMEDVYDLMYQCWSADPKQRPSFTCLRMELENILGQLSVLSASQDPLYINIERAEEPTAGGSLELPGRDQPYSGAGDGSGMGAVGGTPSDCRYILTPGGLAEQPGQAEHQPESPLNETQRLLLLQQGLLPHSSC
- Test Description: HTRF kinase activity biochemical assay, TYRO3
- Run Parameters: 10 μM ATP, 30 minutes pre-incubation; read-out: HTRF TYRO IC50
pIC50: −log10 of the molar value.
Items are presented alongside their recorded pIC50.

Check out these entries, answers already filled in.
Compound | pIC50
Cn1cc(-c2cnc(N)c(C(=O)N[C@H]3CCC[C@@H]3OCc3ccc(-c4ccc5c(c4)OCCC5N4CCN(CCO)CC4)cc3)c2)cn1 (stereo partly drawn) [Example 121] | 7.00 to 8.00
CN1CCN([C@H]2CC(C)(C)c3cc(-c4ccc(CO[C@H]5CCC[C@@H]5NC(=O)c5cc(-c6cccnc6F)cnc5N)cc4)ccc32)CC1 [Example 150] | 7.00 to 8.00

Attention now turns to another entry.
Ask: Let me know recorded pIC50 for CN(C)CCC(=O)N1Cc2ccc(-c3ccc(CO[C@H]4CCC[C@@H]4NC(=O)c4cc(-c5cnn(C)c5)cnc4N)cc3)cc2C1 [Example 1] , thanks.
Reply: < 6.00

* * *

- Target Entity: human AXL (473-end) (Homo sapiens, UniProt P30530)
- Construct: human AXL (473-end); purchased SignalChem, Canada
- Sequence (P30530 473-894 limits assumed): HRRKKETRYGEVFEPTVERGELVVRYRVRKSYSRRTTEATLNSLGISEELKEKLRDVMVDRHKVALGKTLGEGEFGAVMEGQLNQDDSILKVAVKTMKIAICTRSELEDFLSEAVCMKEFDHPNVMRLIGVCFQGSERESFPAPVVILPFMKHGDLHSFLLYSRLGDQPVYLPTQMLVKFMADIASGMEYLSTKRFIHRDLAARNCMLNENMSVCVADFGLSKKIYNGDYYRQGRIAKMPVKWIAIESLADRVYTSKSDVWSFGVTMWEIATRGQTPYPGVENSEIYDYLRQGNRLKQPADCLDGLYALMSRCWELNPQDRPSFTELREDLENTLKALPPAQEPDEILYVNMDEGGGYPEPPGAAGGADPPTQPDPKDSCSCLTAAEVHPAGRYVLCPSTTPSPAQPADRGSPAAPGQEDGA
- Test Description: HTRF kinase activity biochemical assay, AXL
- Run Parameters: 10 μM ATP, 30 minutes pre-incubation
pIC50: −log10 of the molar value.
Assay Readout: pIC50

Check out these entries, answers already filled in.
Compound | pIC50
CC(C)n1ccc2cc(-c3ccc(CO[C@H]4CCC[C@@H]4NC(=O)c4cc(-c5cnn(C)c5)cnc4N)cc3)ccc21 [Example 60] | 7.00 to 8.00
CC1(C)CC(N2CCN(CCO)CC2)c2ccc(-c3ccc(CO[C@H]4CCC[C@@H]4NC(=O)c4cc(C(F)(F)F)cnc4N)cc3)cc21 (stereo partly drawn) [Example 130] | > 8.00

Ask: Let me know recorded pIC50 for Cn1cc(-c2cnc(N)c(C(=O)N[C@H]3COC[C@@H]3OCc3ccc(-c4ccc5c(c4)CC[C@@H]5N4CCN(CCO)CC4)cc3)c2)cn1 [Example 45] , thanks.
Reply: > 8.00

* * *

Items are presented alongside their recorded IC50.
- Target Entity: human AXL (473-end) (Homo sapiens)
- Construct: human AXL (473-end); purchased SignalChem, Canada
- Test Description: HTRF kinase activity biochemical assay, AXL
- Run Parameters: 10 μM ATP, 30 minutes pre-incubation

Structure String | Target Entity | IC50
Cn1cc(-c2cnc(N)c(C(=O)N[C@H]3CCC[C@@H]3OCc3ccc(-c4ccc5c(c4)C4(CC4)CN5C4CCN(CCO)CC4)cc3)c2)cn1 | human AXL (473-end) (Homo sapiens) | 10 to 100 nM

Ask: Let me know recorded IC50 for Nc1ncc(C(F)(F)F)cc1C(=O)N[C@H]1CCC[C@@H]1OCc1ccc(-c2ccc3c(c2)CC[C@@H]3N2CCN(CCO)CC2)cc1 , thanks.
Reply: < 10 nM

Ask: Let me know recorded IC50 for Cn1cc(-c2cnc(N)c(C(=O)N[C@H]3CCC[C@@H]3OCc3ccc(-c4ccc5c(n4)C(C)(C)CN5C4CCN(CCO)CC4)cc3)c2)cn1 , thanks.
Reply: 10 to 100 nM

* * *

Items are presented alongside their recorded pIC50.
- Target Entity: human TYRO3 (455-end) (Homo sapiens)
- Construct: TYRO3 (455-end); purchased SignalChem, Canada
- Test Description: HTRF kinase activity biochemical assay, TYRO3
- Run Parameters: 10 μM ATP, 30 minutes pre-incubation; read-out: HTRF TYRO IC50
pIC50: −log10 of the molar value.

Check out these entries, answers already filled in.
Compound | Target Entity | pIC50
COc1ccc(-c2cnc(N)c(C(=O)N[C@H]3CCC[C@@H]3OCc3ccc(-c4ccc5c(c4)CC[C@@H]5N4CCN(C)CC4)cc3)c2)cn1 | human TYRO3 (455-end) (Homo sapiens) | 6.00 to 7.00
CN1CCN(C2CC(C)(C)c3cc(-c4ccc(CO[C@H]5CCC[C@@H]5NC(=O)c5cc(-c6ccc(F)nc6)cnc5N)cc4)ccc32)CC1 (some centres unmarked) | human TYRO3 (455-end) (Homo sapiens) | 7.00 to 8.00

Ask: Would you please give the reported pIC50 of Cn1cc(-c2cnc(N)c(C(=O)N[C@H]3COC[C@@H]3OCc3ccc(-c4ccc5c(c4)C(C)(C)CN5C4CCN(CCO)CC4)cc3)n2)cn1 with human TYRO3 (455-end) (Homo sapiens)?
Reply: 6.00 to 7.00

Ask: Would you please give the reported pIC50 of Cn1cc(-c2cnc(N)c(C(=O)N[C@H]3CCC[C@@H]3OCc3ccc(-c4ccc5c(c4)CC(F)(F)[C@H]5N4CCN(CCO)CC4)cc3)c2)cn1 with human TYRO3 (455-end) (Homo sapiens)?
Reply: < 6.00

Ask: Would you please give the reported pIC50 of Nc1ncc(-c2ccc(F)nc2)cc1C(=O)N[C@H]1CCC[C@@H]1OCc1ccc(-c2ccc3c(c2)CC(F)(F)C3N2CCN(CCO)CC2)cc1 (some centres unmarked) with human TYRO3 (455-end) (Homo sapiens)?
Reply: 6.00 to 7.00

* * *

Items are presented alongside their recorded pIC50.
- Target Entity: human AXL (473-end) (Homo sapiens, UniProt P30530)
- Construct: human AXL (473-end); purchased SignalChem, Canada
- Test Description: HTRF kinase activity biochemical assay, AXL
- Run Parameters: 10 μM ATP, 30 minutes pre-incubation
pIC50: −log10 of the molar value.

Check out these entries, answers already filled in.
Compound | Value Reported
CN(C)CCC(=O)N1Cc2ccc(-c3ccc(CO[C@H]4CCC[C@@H]4NC(=O)c4cc(-c5cnn(C)c5)cnc4N)cc3)cc2C1 | < 6.00
Cn1cc(-c2cnc(N)c(C(=O)N[C@H]3CCC[C@@H]3OCc3ccc(-c4ccc5c(n4)C(C)(C)C(=O)N5C4CCN(CCO)CC4)cc3)c2)cn1 | < 6.00
Cn1cc(-c2cnc(N)c(C(=O)N[C@H]3CCC[C@@H]3OCc3ccc(-c4ccc5c(c4)ncn5C4CCN(CCO)CC4)cc3)c2)cn1 | < 6.00
Cn1cc(-c2cnc(N)c(C(=O)N[C@H]3CCC[C@@H]3OCc3ccc(-c4ccc5c(c4)CCC[C@@H]5N4CCN(C[C@H](O)CO)CC4)cc3)c2)cn1 | > 8.00

Ask: Let me know recorded pIC50 for Nc1ncc(-c2cncc(F)c2)cc1C(=O)N[C@H]1CCC[C@@H]1OCc1ccc(-c2ccc3c(c2)OCCC3N2CCN(CCO)CC2)cc1 (stereo partly shown) , thanks.
Reply: > 8.00

Ask: Let me know recorded pIC50 for Cn1cc(-c2cnc(N)c(C(=O)N[C@H]3CCC[C@@H]3OCc3ccc(-c4ccc5c(c4)C4(CC4)CN(C4CCN(CCO)CC4)C5)cc3)c2)cn1 , thanks.
Reply: < 6.00

Ask: Let me know recorded pIC50 for CC1(C)C[C@H](N2CCN(CCO)CC2)c2ccc(-c3ccc(CO[C@H]4CCC[C@@H]4NC(=O)c4cc(-c5cccnc5F)cnc4N)cc3)cc21 , thanks.
Reply: > 8.00

Ask: Let me know recorded pIC50 for CN(C)CC(=O)NC1Cc2ccc(-c3ccc(CO[C@H]4CCC[C@@H]4NC(=O)c4cc(-c5cnn(C)c5)cnc4N)cc3)cc2C1 (stereo partly shown) , thanks.
Reply: 7.00 to 8.00

Ask: Let me know recorded pIC50 for Cn1cc(-c2cnc(N)c(C(=O)N[C@H]3CCC[C@@H]3OCc3ccc(-c4ccc5c(ccn5CC(=O)O)c4)cc3)c2)cn1 , thanks.
Reply: 7.00 to 8.00
